Biological target: T1, human CD47-Fc (human, UniProt Q08722 19-139)
T1 construct: also called hCD47; human CD47-Fc protein; not shown: Fc part
T1 sequence (Q08722 19-139 limits assumed): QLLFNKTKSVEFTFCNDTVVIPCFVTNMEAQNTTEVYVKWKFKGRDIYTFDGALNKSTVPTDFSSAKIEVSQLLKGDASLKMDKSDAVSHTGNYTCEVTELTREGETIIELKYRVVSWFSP
Assay: direct ELISA, coated human CD47-Fc, OD450
ASSAY ENDPOINT: EC50 (read off the curve)

BINDER	OBSERVED
VH1.8/VL1.1, human IgG1null (antibody, V domains shown, IgG1null (L234A/L235A/G237A); also called Clone VH1.8/VL1.1) VH: QVQLVQSGAEVKKPGASVKVSCKASGYTFTNYAMHWVRQAPGQRLEWMGTIYPGNDDTKYNQKFQGRVTITADTSASTAYMELSSLRSEDTAVYYCARGGFRAMDYWGQGTLVTVSS VL: DIVMTQSPLSLPVTPGEPASISCRSSQSLLHSNGNTYLGWYLQKPGQSPQLLIYKGSNRFSGVPDRFSGSGSGTDFTLKISRVEAEDVGVYYCFQASHVPYTFGQGTKLEIK	~0.06 µg/mL
VH1.8/VL1.3, human IgG1null (antibody, V domains shown, IgG1null; also called Clone VH1.8/VL1.3) VH: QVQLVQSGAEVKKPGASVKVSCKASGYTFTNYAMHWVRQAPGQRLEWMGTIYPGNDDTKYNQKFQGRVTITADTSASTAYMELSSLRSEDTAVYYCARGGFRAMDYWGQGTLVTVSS VL: DIVMTQSPLSLPVTPGEPASISCRSSQSLLHSNANTYLGWYLQKPGQSPQLLIYKGSNRFSGVPDRFSGSGSGTDFTLKISRVEAEDVGVYYCFQASQVPYTFGQGTKLEIK	~0.06 µg/mL
VH1.8/VL1.5, human IgG1null (antibody, V domains shown, IgG1null; also called Clone VH1.8/VL1.5) VH: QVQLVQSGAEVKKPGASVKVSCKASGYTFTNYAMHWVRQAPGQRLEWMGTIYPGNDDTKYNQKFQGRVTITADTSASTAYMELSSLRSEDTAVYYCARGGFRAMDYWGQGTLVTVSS VL: DIVMTQSPLSLPVTPGEPASISCRSSQSLLHSNAYNYLGWYLQKPGQSPQLLIYKGSNRFSGVPDRFSGSGSGTDFTLKISRVEAEDVGVYYCFQASHVPYTFGQGTKLEIK	~0.06 µg/mL
